# protocol details: viability of HCT116 without oncogenic beta-catenin – human colon tumor cells, pilot screen (AID 823);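 note: 0% = wells killed by 20 µM Hyamine and 100% = untreated DMSO cell wells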
# setup conditions: HCT116 beta-catenin knockout viability, CellTiter-Glo, 60 h; at 10 µM; stronger effect = lower value
Inconclusive results are not listed.
Provide the reported viability of each item.
State just the number; it will be interpreted in %.

Look up viability: `O=C(Nc1nc2c(s1)CCCC2)c1cccnc1`
100

Reported viability for `N#Cc1nc(-c2ccc(Cl)cc2)oc1NCCc1ccccn1` : what is it?
97.3

Which viability is listed for COc1ccc(OC)c(C(C)NC=O)c1 (stereo unspecified) ?
95.2

// lookup viability for `Cc1ccc2cccc(SCC(=O)N3CCOCC3)c2n1`
98.9

Name the reported viability value associated with the compound `Cc1cc(C)n2nc(S(=O)(=O)N(CC(C)C)CC(C)C)nc2n1`
104

Value lookup for viability; key = O=C(NCc1cccnc1)NC1(C(F)(F)F)Oc2ccc(Cl)cc2O1 (stereo unspecified)
52.6

Look at this compound and give its reported viability. `Cc1ccccc1Cn1nc(C)c(NC(=O)c2noc3c2CCc2ccccc2-3)c1C`
79.5

State the recorded viability for this entry: `CCOC(=O)N1CCN(C(=O)COc2ccc(S(=O)(=O)NC(C)C)cc2)CC1`
96.2

Looking for the measured viability of CC(=O)c1ccc(OCC(O)CN2CCN(Cc3ccc4c(c3)OCO4)CC2)cc1 (stereo unspecified) , can you help?
102

Which viability is listed for Cc1c(C(=O)OC2CCCC2)[nH]c2c1C(=O)CC(c1ccco1)C2 (stereo unspecified) ?
15.4

Give its viability value. Item: `COc1ccc(N2Cc3ccccc3C2)cc1Cl`
94

* * *

# protocol details: MRP1 drug-resistance reversers in H69AR cells – cell-based, doxorubicin co-treatment, pilot screen (AID 601)
# setup conditions: H69AR cells + 2 uM doxorubicin, CellTiter-Glo, 72 h; at 10 µM; stronger effect = higher value
observed property: differential viability (reversal) (%)
Lab book: enter the figure in %, no units written.

What value of differential viability (reversal) has been recorded for this entry: COc1ccc(C2CC(c3ccc(C)cc3)Nc3ncnn32)cc1 (centres undefined)
14.9

Item `N#CCCN(Cc1cccnc1)C(=O)Nc1ccc(Cl)c(Cl)c1` has what recorded differential viability (reversal)?
9.8

Which measured differential viability (reversal) value corresponds to `Cc1ccc(-c2cc(C(F)F)nc(N3CCC(C)CC3)n2)cc1` ?
1.39

For `CCc1nn(CC(=O)NCCCN2CCc3ccccc3C2)c(=O)c2cc3sccc3n12` , what is its reported differential viability (reversal)?
-3.23

Quick one: differential viability (reversal) of COc1ccc(OC)c(C(C)NC=O)c1 (centres undefined) ?
0.26

# differential viability (reversal) lookup, item `c1ccc(Cn2nnc3c(N4CCCCCC4)ncnc32)cc1`
-13.9

Name the reported differential viability (reversal) value associated with the compound `C=C(Cl)COc1ccc2c(C)cc(=O)oc2c1`
-2.75

Fill in: differential viability (reversal) of `COc1cc(NC(=O)c2nccnc2C(=O)O)cc(OC)c1` is ___
18.3

What differential viability (reversal) value was documented for this compound, `Cc1ccc(Cn2c(=O)c3ccccc3n3c(CCC(=O)O)nnc23)cc1` ?
7.02

What differential viability (reversal) value was documented for this compound, COc1ccc(NC(=O)C2Cc3ccccc3C(=O)O2)cc1 (centres undefined) ?
5.95

Report differential viability (reversal) for `Cc1cc2cc(CCNC(=O)CC(C)C)c(=O)[nH]c2cc1C` please.
0.865

Form field: reported differential viability (reversal) of `CCN(CCNC(=O)C1CCN(S(=O)(=O)c2cccc3cccnc23)CC1)c1ccccc1`
-2.15

Entry `CCOc1ccc(NC(=O)CSc2nnc(COc3c(C)cccc3C)o2)cc1` : reported differential viability (reversal) = ?
-5.7

Given the compound CC(=O)OC1c2ccccc2C(=O)N1Cc1ccccc1Cl (centres undefined) , what is its reported differential viability (reversal)?
-2.26

Dear colleague, I am looking for the recorded differential viability (reversal) of the following compound: `CCN(CC)C(=O)Oc1ccccc1NC(C)=O`
-0.19

Form field: reported differential viability (reversal) of O=C(C1COc2ccccc2O1)N1CCCC1 (centres undefined)
1.71

differential viability (reversal) for `COc1ccccc1NC(=O)N(C1CCCC1)C1CCN(C(C)=O)CC1` ?
0.61

Requested read-out: differential viability (reversal). Entry: `CCn1cc(C(=O)NCc2ccccc2OC)c(=O)c2cc(S(=O)(=O)N(C)C)ccc21`
9.22

Which differential viability (reversal) value belongs to `Cn1c(SCC(=O)Nc2ccc(F)cc2)nnc1-c1cccnc1` ?
12.8

Look at this compound and give its reported differential viability (reversal). `CCOC(=O)c1nc2sc3c(c2c(=O)[nH]1)CCCC3`
-3.7

Param item = `CCOC(=O)c1ccccc1NC(=O)c1cccnc1` ; retrieve measured differential viability (reversal).
1.67

Endpoint output: differential viability (reversal) of `CC(C)c1nnc(NC(=O)C2CCCCC2)s1` . Value?
5.75

differential viability (reversal) lookup needed for `Cc1ccc2oc(=O)c3cnn(CC(=O)N4CCCc5ccccc54)c3c2c1` , thanks.
13.9

What value of measured differential viability (reversal) is listed for Cn1cc(C2NC(=O)c3c(sc4c3CCCC4)N2)c2ccccc21 (centres undefined) ?
4.49

* * *

# protocol details: viability of HCT116 without oncogenic beta-catenin – human colon tumor cells, pilot screen (AID 823);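 note: 0% = wells killed by 20 µM Hyamine and 100% = untreated DMSO cell wells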
# setup conditions: HCT116 beta-catenin knockout viability, CellTiter-Glo, 60 h; at 10 µM
Records with an inconclusive call do not appear. The source made the active and inactive calls.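 The calls were made as follows: active = cell viability at or below a set limit in both duplicate runs, the limit being the all-compound median minus 4 SD (cut at about 23% in these data, passing the limit was not always enough); inconclusive = no clear call, values can overlap the other calls; inactive = the rest.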
// allowed return values: active, inactive

Field: outcome | Entry: COCCn1c(SCC(=O)N2CCN(c3ccccc3)CC2)nc2c(c1=O)SC(C)C2 (centres undefined)
inactive

Could you please tell me the result logged for CC1CN(c2ccc(Oc3ccccc3)cc2)c2nc3c(c(=O)n(CC(N)=O)c(=O)n3C)n2C1 (centres undefined) in this assay?
inactive

Called result for `Cc1ccc(C)c(Cn2c(CN(C)Cc3ccccc3)nc3c2c(=O)n(C)c(=O)n3C)c1`
inactive

What did this assay record as the result for `COc1cc(C(=O)Nc2cccc(-c3nncn3C)c2)cc(OC)c1OC` ?
inactive

Per the assay record, what outcome was assigned to `O=C(CSc1nc2c([nH]c3ccccc32)c(=O)n1-c1ccccc1)N1CCOCC1` ?
inactive

What did the test return for COCCOC(=O)c1[nH]c2c(c1C)C(=O)CC(c1cc(OC)ccc1OC)C2 (centres undefined) ?
inactive

Check the results log: what was the call for `CCCNC(=O)C1CCN(S(=O)(=O)c2ccc3nc4c(c(C(=O)O)c3c2)CCCCC4)CC1` ?
inactive

For O=C(O)C1C(c2ccccc2)C(C(=O)OCc2ccco2)C1c1ccccc1 (centres undefined) , which call appears in the assay record?
inactive

Query: recorded result category for `Cc1cc(C)c2c(=O)n(CC(=O)NCCCN3CCN(c4ccccc4F)CC3)sc2n1` in this test
active

State the result this test recorded for `CCOC(=O)N1CCC(NC(=O)CN2C(=O)CCSc3ccccc32)CC1` .
inactive

I'd appreciate the recorded outcome for `CCCCOC(=O)Cn1c(=O)oc2ccc(C)cc21` from this test.
inactive

Each compound tested received a call. Report the one for c1nc(NCC2CCCO2)c2[nH]cnc2n1 (centres undefined) .
inactive

Could you check what this test reported for Cc1cc(=O)oc2cc(OCC(O)CN3CCN(c4ccc(F)cc4)CC3)ccc12 (centres undefined) ?
inactive

Test call for this compound, please: `CC(C)(O)C#Cc1ccc(C(=O)N2CCN(C(=O)c3ccco3)CC2)cc1`
inactive

Can you look up the reported call for `C=CCOC(=O)COc1ccc2c(C)c(C)c(=O)oc2c1C` for me?
inactive

Record request — test call for CCC(C(=O)N1CCN(c2cccc(Cl)c2)CC1)c1ccccc1 (centres undefined)
inactive

What call does the record list for O=C(O)CC(C(=O)Nc1cccc(C(F)(F)F)c1)C1CCCO1 (centres undefined) ?
inactive

Assay result, entry `Cc1oc(-c2cccc(Cl)c2)nc1CN1CCC(C(=O)N2CCN(c3ccccc3F)CC2)CC1` — outcome?
active

Each compound tested received a call. Report the one for Nc1nc2n(n1)C(c1cccc(Br)c1)CC(c1ccccc1)N2 (centres undefined) .
inactive

# lookup: test call for `COc1cccc(-c2nc(CS(=O)(=O)CC(=O)Nc3cc(C)ccc3C)c(C)o2)c1`
inactive

Per the assay record, what outcome was assigned to `COc1nc(Oc2ccc(=O)n(C)n2)nc(N(C)C)n1` ?
inactive

Recorded test call requested for `CC(C)CCN(C)C1CCN(S(=O)(=O)c2ccc(F)cc2)CC1`
inactive

Tell me the assay call for `Cn1c(Cn2c(=O)sc3ccccc32)nnc1SCc1ccccc1` please.
inactive

Tell me the recorded outcome of this test for `COc1ccccc1OCC(=O)N1CCN(c2ccccc2OC)CC1` .
inactive

Could you please tell me the result logged for `CCOC(=O)CN(C(=O)c1ccccc1)c1ccccc1C` in this assay?
inactive

What call does the record list for CC1=C(C(=O)OC2CCCC2)C(c2ccc(C)o2)C2=C(CC(c3cccs3)CC2=O)N1 (centres undefined) ?
inactive

Hi, sorry to bother you, what did the test record for `CCCN1CCN(C(=O)c2cn(CC(C)C)c(=O)c3cc(OC)c(OC)cc23)CC1` ?
inactive

Answer briefly: the call reported for `CN(C)c1cc(NC(=O)CN2CCOCC2)c2ccccc2n1` in this assay.
inactive

Can you look up the reported call for `CCN(CC)S(=O)(=O)c1ccc(Cl)c(C(=O)Nc2nnc(C)s2)c1` for me?
inactive

Give the logged outcome of this assay for the following compound: `Cc1cc(NC(=O)COc2cccc(C)c2C)no1`
inactive

Please indicate how the test categorized `CCc1cccc(C)c1NC(=O)CN1C(=O)c2ccccc2S1(=O)=O` .
inactive

What did the test return for `COc1cccc2cc(C(=O)OC3CCN(C)CC3)c(=O)oc12` ?
inactive

Can you look up the reported call for `CCCCOCCCNC(=O)c1ccc(NC(C)=O)cc1` for me?
inactive

Outcome? `O=C(c1ccco1)N1CCN(C(=O)c2sccc2-c2ccccc2)CC1`
inactive

Short answer needed: outcome of this test for `COc1cccc(-n2c(SCC(=O)N3CCCC3)nc3c([nH]c4ccccc43)c2=O)c1` ?
inactive

Any idea what this test logged for `COC(=O)c1cc(OC)c(OC)cc1NC(=O)c1ccc(Br)o1` ?
inactive

Each compound tested received a call. Report the one for `COCc1cc(C)nc(N2CCOCC2)c1C#N` .
inactive

For CCN1CCCC1CNC(=O)c1cc2c(=O)n(C)c3ccccc3c2n1C (centres undefined) , what call appears in the results of this test?
inactive

Hi, sorry to bother you, what did the test record for `CCCCOC(=O)Cc1c(O)c2ccccc2[nH]c1=O` ?
inactive

Just curious, what result did `CCOc1ccc(Cn2nnc(C(=O)Nc3cc(OC)cc(OC)c3)c2N)cc1` get here?
inactive

Each compound tested received a call. Report the one for COc1ccc(C2C(C#N)=C(C)NC3=C2C(=O)CC(C)(C)C3)c(OC)c1 (centres undefined) .
inactive

Identify the outcome logged in this assay for the compound shown: Cc1noc(/C=C/N(C)C)c1S(=O)(=O)N1CCCC(C(=O)NCCC2=CCCCC2)C1 (centres undefined)
inactive

// param item: `CCOc1ccc(Cc2nnc(SCC(=O)c3ccc(OC)cc3)o2)cc1` ; yields the recorded call
inactive

What was the test verdict on `Clc1cccc(N2CCN(Cc3nc(-c4ccccc4)no3)CC2)c1` ?
inactive
